# Target or system: human TLR9 (Homo sapiens, UniProt Q9NR96)
# Construct: host or cells: HEK-Blue cells (HEK293-derived reporter line)
# Sequence (Q9NR96 26-1032): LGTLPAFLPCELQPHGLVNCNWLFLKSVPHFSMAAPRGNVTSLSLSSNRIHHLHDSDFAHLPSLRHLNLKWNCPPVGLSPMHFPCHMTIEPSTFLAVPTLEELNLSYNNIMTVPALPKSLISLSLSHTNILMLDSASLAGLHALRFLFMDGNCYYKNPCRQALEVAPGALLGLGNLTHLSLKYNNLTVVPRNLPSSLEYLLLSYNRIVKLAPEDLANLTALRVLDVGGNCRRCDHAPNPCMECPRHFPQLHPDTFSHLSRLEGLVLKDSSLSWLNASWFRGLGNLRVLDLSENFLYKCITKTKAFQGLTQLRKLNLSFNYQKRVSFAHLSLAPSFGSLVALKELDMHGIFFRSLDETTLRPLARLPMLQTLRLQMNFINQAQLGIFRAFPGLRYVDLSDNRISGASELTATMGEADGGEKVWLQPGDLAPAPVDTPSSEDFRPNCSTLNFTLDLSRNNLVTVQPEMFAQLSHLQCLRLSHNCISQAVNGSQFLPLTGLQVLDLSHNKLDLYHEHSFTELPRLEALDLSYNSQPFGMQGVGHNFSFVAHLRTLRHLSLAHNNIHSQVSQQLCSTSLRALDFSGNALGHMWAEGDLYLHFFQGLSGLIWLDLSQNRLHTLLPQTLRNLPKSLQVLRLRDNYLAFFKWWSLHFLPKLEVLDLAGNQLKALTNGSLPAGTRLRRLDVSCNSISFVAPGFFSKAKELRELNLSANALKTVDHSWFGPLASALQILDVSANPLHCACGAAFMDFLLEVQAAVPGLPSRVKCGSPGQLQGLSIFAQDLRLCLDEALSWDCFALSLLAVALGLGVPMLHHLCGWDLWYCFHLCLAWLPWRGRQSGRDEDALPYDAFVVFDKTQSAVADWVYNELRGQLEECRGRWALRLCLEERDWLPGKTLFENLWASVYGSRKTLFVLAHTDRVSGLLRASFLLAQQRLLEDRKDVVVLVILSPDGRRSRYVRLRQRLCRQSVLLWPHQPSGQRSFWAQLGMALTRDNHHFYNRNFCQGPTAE
# Assay notes: TLR9 inhibition reporter assay (HEK-Blue cells, secreted embryonic alkaline phosphatase reporter)
# Format: cell-based
# Conditions used: HEK-Blue cells overexpressing human TLR9, stimulated with ODN2006 5 nM; read-out: TLR 9 IC50
Reported IC50 values are given for each entry in this list.
Give just the number in nM; leave the unit off.

CC(C)N1CCC(N2CCC(c3cc(F)c4c(c3)nc(-c3ccc(S(C)(=O)=O)cc3)n4C)CC2)CC1 | 104

So, Cn1c(-c2ccc(S(C)(=O)=O)cc2)nc2c(F)c(C3CCN(C4CC5CCC(C4)N5C4CCOCC4)CC3)ccc21 (stereo not drawn) [Example 197] ? Its IC50 was 155

So, Cc1cc(C2CCN(C3CCN(CC(C)C)CC3)CC2)cc2[nH]c(-c3cccc4ncccc34)nc12 [Example 72, tris(2,2,2-trifluoroacetate)] ? Its IC50 was 88
